Target protein (sequence): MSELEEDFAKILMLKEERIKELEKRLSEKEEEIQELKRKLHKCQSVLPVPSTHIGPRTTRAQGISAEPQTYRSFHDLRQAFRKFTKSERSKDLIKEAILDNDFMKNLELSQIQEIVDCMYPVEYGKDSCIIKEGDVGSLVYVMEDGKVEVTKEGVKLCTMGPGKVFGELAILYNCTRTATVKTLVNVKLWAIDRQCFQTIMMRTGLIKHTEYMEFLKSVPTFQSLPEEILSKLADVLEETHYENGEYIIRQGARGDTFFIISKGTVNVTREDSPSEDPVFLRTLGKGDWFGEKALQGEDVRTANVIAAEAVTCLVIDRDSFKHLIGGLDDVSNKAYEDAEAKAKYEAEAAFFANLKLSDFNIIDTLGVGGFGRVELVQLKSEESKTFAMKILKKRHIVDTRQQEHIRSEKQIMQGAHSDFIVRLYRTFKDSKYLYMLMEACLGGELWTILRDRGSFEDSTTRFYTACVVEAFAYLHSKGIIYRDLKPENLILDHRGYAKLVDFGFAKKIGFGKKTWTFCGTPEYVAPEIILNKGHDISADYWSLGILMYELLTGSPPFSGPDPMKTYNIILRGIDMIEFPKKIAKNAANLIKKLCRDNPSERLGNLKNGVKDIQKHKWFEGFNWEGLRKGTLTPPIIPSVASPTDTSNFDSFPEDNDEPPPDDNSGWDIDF
Here the recorded pIC50 is given for each entry.
pIC50 is a log-scale quantity: -log10 of the concentration expressed in molar.

Use these answered entries as a reference point.
INSERT INTO results (smiles_representation, readout_number) VALUES
  ('CCn1c(-c2nonc2N)nc2c(-c3ccccc3)ncc(CN(C)C3CCN(C)CC3)c21', 4.39),
  ('CC(C)(CN)c1cc(-c2ccc(Cl)c(O)c2)c(-c2ccncc2)o1', 4.82),
  ('O=C(N[C@@H](CO)c1ccccc1)c1ccc2cncc(-c3cn[nH]c3)c2n1', 5.21),
  ('Nc1nc(Nc2cccc3cnccc23)nn1C(=O)C1CCCCC1', 4.65),
  ('NCCNCc1ccc(-c2cc3ccncc3cc2OC2CCNCC2)s1', 4.86),
  ('CNCCOc1cnc(-c2ccoc2C)c(-c2ccc3cnccc3c2)c1', 5.13);

For the molecule "Nc1ccc2c(-c3ccncc3)c(-c3ccc(Cl)c(O)c3)[nH]c2n1" , report pIC50.
4.34

Fill in reported pIC50 for this entry: "CNS(=O)(=O)c1cccc(Nc2ccnc(Nc3cccc(S(=O)(=O)NC)c3)n2)c1"
4.35

All values here come from paper PMC6504873.
